System: HT-29
Assay: Antiproliferative activity against human HT-29 cells after 48 hrs by SRB assay
Format: functional
Conditions: HT-29, 48 h
Label Criterion met when GI50 is strictly below 800 nM; at or above that, label Criterion not met.

structure	cat
O=C(NCCCl)Nc1cccc(CCCCO)c1	Criterion met
CCCCCc1cccc(NC(=O)NCCCl)c1	Criterion met
COc1ccc(/C=C\c2ccc(NC(=O)NCCCl)cc2)cc1O	Criterion not met
COc1ccc(CCc2cccc(NC(=O)NCCCl)c2)cc1O	Criterion not met
COCCCCCc1cccc(NC(=O)NCCCl)c1	Criterion not met
CC(=O)CCCCc1cccc(NC(=O)NCCCl)c1	Criterion met
O=C(NCCCl)Nc1cccc(CCCCCCO)c1	Criterion met
O=C(NCCCl)Nc1cccc(CCCCCO)c1	Criterion met
